Tested on: HIV/Lai
Measurement Notes: microbe, parasite or virus in culture
Type: cell-based
Conditions: Human immunodeficiency virus 1, TZM-bl, read-out: IC50, inhibition of HIV
pIC50: −log10 of the molar value.
Parameter: pIC50

Record request: pIC50 value, item CC(=O)C1=C2C=CCCN2C(=O)N[C@H]1c1ccccc1 [CMLDBU6128]
~4.70

Reference source: patent US9567331B2
